# target desc: T1, purified interference factor(s) from serum of Donor B
# T1 construct: text names Donors 8, 19 and 30
# test name: Biacore, immobilized interference factor
Reported binding vs Reference Sequence (=100%) values for a set of binders
Please reply with the bare figure in % and do not write the unit itself.

In the examples that follow, each entry is paired with its recorded binding vs Reference Sequence (=100%).
SEQ ID NO 43 (bispecific antibody, Nanobody construct; C-terminal: A) DVQLVESGGGLVQPGGSLRLSCAASGFILDYYAIGWFRQAPGKEREGVLCIDASDDITYYADSVKGRFTISRDNSKNTVYLQMNSLRPEDTAVYYCATPIGLSSSCLLEYDYDYWGQGTLVTVSSGGGGSGGGSEVQLLESGGGLVQPGGSLRLSCAASGFTFRSFGMSWVRQAPGKGPEWVSSISGSGSDTLYADSVKGRFTISRDNSKNTLYLQMNSLRPEDTAVYYCTIGGSLSRSSQGTLVTVSSA = 20
SEQ ID NO 77 (VHH, C-terminal: A) VHH: EVQLVESGGGLVQPGGSLRLSCAASRSIGRLDRMGWYRHRPGEPRELVATITGGSSINYGDSVKGRFTISIDNSKNTVYLQMNSLRPEDTAVYYCNFNKYVTSRDTWGQGTLVTVSS = 12
SEQ ID NO 73 (VHH, C-terminal: G; S112G, S113G) VHH: EVQLVESGGGLVQPGGSLRLSCAASRSIGRLDRMGWYRHRPGEPRELVATITGGSSINYGDSVKGRFTISIDNSKNTVYLQMNSLRPEDTAVYYCNFNKYVTSRDTWGQGTLVTVGG = 8
SEQ ID NO 76 (VHH, C-terminal: GGG) VHH: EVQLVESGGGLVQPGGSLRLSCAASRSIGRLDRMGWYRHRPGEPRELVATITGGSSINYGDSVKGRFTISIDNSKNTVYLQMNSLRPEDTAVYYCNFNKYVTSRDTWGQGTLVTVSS = 17

Please report binding vs Reference Sequence (=100%) for the following binder: SEQ ID NO 87 (VHH, L11S, S112G, S113G) VHH: EVQLVESGGGSVQPGGSLRLSCAASRSIGRLDRMGWYRHRPGEPRELVATITGGSSINYGDSVKGRFTISIDNSKNTVYLQMNSLRPEDTAVYYCNFNKYVTSRDTWGQGTLVTVGG 5

Please report binding vs Reference Sequence (=100%) for the following binder: SEQ ID NO 79 (VHH, C-terminal: GG) VHH: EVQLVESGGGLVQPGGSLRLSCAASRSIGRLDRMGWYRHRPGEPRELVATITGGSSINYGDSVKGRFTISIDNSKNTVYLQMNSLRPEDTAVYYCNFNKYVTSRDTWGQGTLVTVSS 17

Please report binding vs Reference Sequence (=100%) for the following binder: SEQ ID NO 65 (VHH, P14A) VHH: EVQLVESGGGLVQAGGSLRLSCAASRSIGRLDRMGWYRHRPGEPRELVATITGGSSINYGDSVKGRFTISIDNSKNTVYLQMNSLRPEDTAVYYCNFNKYVTSRDTWGQGTLVTVSS 121
